Assay: Clearance in rat at 2 mg/kg, iv
Format: ADME, organism-based
Parameters: dose 2 mg/kg, route intravenous
Conditions: in vivo
readout_type: clearance (mL/min/kg)

Prompt line: Fill in the blank: the reported clearance of CCOc1cc(NC(=O)C2(NC(=O)c3ccc4c(C5CCCC5)c(-c5ncc(Cl)cn5)n(C)c4c3)CCC2)ccc1/C=C/C(=O)O is ____.
Response line: 2.6

(1) CCOc1cc(NC(=O)C2(NC(=O)c3ccc4c(C5CCCC5)c(-c5ccc(F)cn5)n(C)c4c3)CCC2)ccc1/C=C/C(=O)O
(2) COCCOc1cc(NC(=O)C2(NC(=O)c3ccc4c(C5CCCC5)c(-c5ncc(Cl)cn5)n(C)c4c3)CCC2)ccc1/C=C/C(=O)O
Prompt line: Which shows the larger clearance value: 1 or 2 ? Answer format: the label of the selected item.
Response line: 1

Where do these numbers come from? They come from ChEMBL document CHEMBL3351932.
